Reference source for all entries: PubChem BioAssay AID624339

- System: PAMPA artificial membrane permeability, pH 7.4
- Assay: PAMPA permeability at pH 7.4 – biophysical, ADME assay (AID 624339)
- Condition: at 100 µM; active compounds read high
Form field: permeability Pe (one value per entry).

>  <Compound>
CCc1oc2ccccc2c1C(=O)c1cc(Br)c(O)c(Br)c1

>  <permeability Pe>
71 10-6 cm/s

$$$$
>  <Compound>
CCOc1ccc(NC(=S)N2CCC(C(O)(c3ccccc3)c3ccccc3)CC2)cc1

>  <permeability Pe>
682 10-6 cm/s

$$$$
>  <Compound>
O=c1[nH]c2c(s1)C(c1cccnc1)C1C3CCC(C3)C1S2 (stereo unspecified)

>  <permeability Pe>
830 10-6 cm/s

$$$$
>  <Compound>
O=C(CCNS(=O)(=O)c1cccc2nsnc12)N1CCN(c2ccccn2)CC1

>  <permeability Pe>
143 10-6 cm/s

$$$$
>  <Compound>
COC(=O)c1ccccc1NC(=O)c1ccc(F)cc1

>  <permeability Pe>
629 10-6 cm/s

$$$$
>  <Compound>
CCOc1ccc(-c2nc(-c3ccncc3)no2)cc1OCC

>  <permeability Pe>
1030 10-6 cm/s

$$$$
>  <Compound>
Brc1cc2c(cc1C1Nc3ccccc3C3C=CCC31)OCO2 (stereo unspecified)

>  <permeability Pe>
37 10-6 cm/s

$$$$
>  <Compound>
N#C/C(=C\c1ccc([N+](=O)[O-])o1)c1nc2ccccc2[nH]1

>  <permeability Pe>
145 10-6 cm/s

$$$$
>  <Compound>
Cn1nnnc1Sc1ncnc2scc(-c3ccccc3)c12

>  <permeability Pe>
973 10-6 cm/s

$$$$
>  <Compound>
Cc1ccnc(NC(=O)CCCOc2cc(=O)n(C)c3ccccc23)c1

>  <permeability Pe>
510 10-6 cm/s

$$$$
>  <Compound>
Cc1ccc(NS(=O)(=O)c2ccc3c(c2)CCC(=O)N3)cc1C

>  <permeability Pe>
622 10-6 cm/s

$$$$

----------
- Test system: PAMPA artificial membrane permeability, pH 7.4
- Assay: PAMPA permeability at pH 7.4 – biophysical, ADME assay (AID 624339)
- Condition: at 100 µM
Calls of active or inactive are those of the source. No rule for the calls is given here.
Labels: active, inactive

>  <Compound Structure>
Cn1cnc([N+](=O)[O-])c1Sc1ncnc2nc[nH]c12

>  <Tested Target>
PAMPA artificial membrane permeability, pH 7.4

>  <Answer Label>
inactive

$$$$
>  <Compound Structure>
COc1ccccc1N(/N=C1\Sc2ccccc2C1=O)C(C)=O

>  <Tested Target>
PAMPA artificial membrane permeability, pH 7.4

>  <Answer Label>
active

$$$$
>  <Compound Structure>
Cc1cc(C(=O)CN2C(=O)CCC2=O)c(C)n1Cc1ccccc1

>  <Tested Target>
PAMPA artificial membrane permeability, pH 7.4

>  <Answer Label>
active

$$$$
>  <Compound Structure>
c1ccc(-c2nnc(N3CCOCC3)nc2-c2ccccc2)cc1

>  <Tested Target>
PAMPA artificial membrane permeability, pH 7.4

>  <Answer Label>
active

$$$$
>  <Compound Structure>
O=c1c2ccccc2[se]n1-c1ccccc1

>  <Tested Target>
PAMPA artificial membrane permeability, pH 7.4

>  <Answer Label>
active

$$$$
>  <Compound Structure>
O=C(CSc1cccc2cccnc12)N1CCCC1

>  <Tested Target>
PAMPA artificial membrane permeability, pH 7.4

>  <Answer Label>
active

$$$$
